# target.desc: GLP-1 receptor (UniProt P43220 24-463, limits assumed)
# test.name: cell-based or functional assay
No end group written: not given here.
Listed below: Relative Potency (%) values for each entry.
Note to self: number, then unit, no commentary.

# annotated cases, reported Relative Potency (%) shown
Q: Given the binder HSQGTFTSDYSKYLDSRRAQDFVQWLVKGGPSSGAPPPS-NH2 [VKGG30 PSSGAPPPS (SEQ ID NO: 524)] , what is its reported Relative Potency (%)?
A: 12%

Q: Please look up its Relative Potency (%): HSQGTFTSDYSKYLDSRRAQDFVQWLMKGGPSSGAPPPS-NH2 [MKGG30 PSSGAPPPS (SEQ ID NO: 523)]
A: 3%

Switching to the query record.
Q: Entry HAEGTFTSDVSSYLEGQAAKEFIAWLVKGG-NH2 [GLP-1-VKGG30 (SEQ ID NO: 527)] has what Relative Potency (%)?
A: 100%
